Molecular target: T1, monomeric human TNFR2 extracellular domain (human, UniProt P20333 23-257)
T1 construct: extracellular domain; Analyte in the Octet experiments; also called human TNFR2 ECD
T1 sequence (looked up): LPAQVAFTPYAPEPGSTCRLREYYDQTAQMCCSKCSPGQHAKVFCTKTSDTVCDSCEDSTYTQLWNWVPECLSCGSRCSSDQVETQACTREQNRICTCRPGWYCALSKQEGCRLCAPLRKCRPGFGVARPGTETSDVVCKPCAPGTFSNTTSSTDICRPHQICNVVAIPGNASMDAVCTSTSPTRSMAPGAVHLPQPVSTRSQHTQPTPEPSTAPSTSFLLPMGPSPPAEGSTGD
Test: BLI (Octet Red 96), CHO supernatant antibody on anti-human Fc biosensor, 100 nM monomeric human TNFR2 ECD, 1:1 model
Measured metric: Kd (nM)
The response must be a number in nM with no trailing unit.

Inquiry: Report Kd for chimeric SBT-002 Fc null (antibody, V domains shown, also called chSBT-002n) VH: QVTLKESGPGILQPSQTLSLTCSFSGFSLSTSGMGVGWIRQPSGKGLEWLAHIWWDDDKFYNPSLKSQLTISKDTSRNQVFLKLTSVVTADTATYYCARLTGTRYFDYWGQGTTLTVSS VL: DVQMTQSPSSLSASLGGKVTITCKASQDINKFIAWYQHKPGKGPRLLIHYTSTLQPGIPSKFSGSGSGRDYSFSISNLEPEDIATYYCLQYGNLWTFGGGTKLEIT please.
Reply text: 1.92

Inquiry: Next binder up: hSBT-002a (antibody, V domains shown, Humanized SBT-002; VH fused to human IgG1 Fc null, VL to human Ck; Tested as CHO supernatant) VH: QVTLKESGPALVKPTQTLTLTCTFSGFSLSTSGMGVGWIRQPPGKALEWLAHIWWDDDKFYNPSLKSRLTISKDTSKNQVVLTMTNMDPVDTATYYCARITGTRYFDYWGQGTTVTVSS VL: DIQMTQSPSSLSASVGDRVTITCKASQDINKFIAWYQQKPGKAPKLLIYYTSTLQPGVPSRFSGSGSGTDFTFTISSLQPEDIATYYCLQYGNLWTFGGGTKVEIK
Reply text: 4.89

Inquiry: Next binder up: hSBT-002c (antibody, V domains shown, Humanized SBT-002; VH fused to human IgG1 Fc null, VL to human Ck; Tested as CHO supernatant) VH: QVTLKESGPALVKPTQTLTLTCTFSGFSLSTSGMGVGWIRQPPGKALEWLAHIWWDDDKFYNPSLKSRLTISKDTSKNQVVLTMTNMDPVDTATYYCARLTGTRYFDYWGQGTTVTVSS VL: DVQMTQSPSSLSASVGDRVTITCKASQDINKFIAWYQQKPGKAPKLLIHYTSTLQPGIPSRFSGSGSGTDFTFTISSLQPEDIATYYCLQYGNLWTFGGGTKVEIK
Reply text: 2.27

Just for reference, patent US20190202925A1 is where these values come from.
